# System: MM.1R cells
# assay: CCK-8 cell viability, MM.1R
# Type: cell-based
# conditions: Homo sapiens, 72h
readout-name: pIC50
Note: pIC50 values are expressed as the negative base-10 logarithm of concentration in M.

Assign pIC50 to the following record: CC(C)C[C@H](NC(=O)[C@H](CCc1ccccc1)NC(=O)CN1CCOCC1)C(=O)N[C@@H](Cc1ccccc1)C(=O)N[C@@H](CC(C)C)C(=O)[C@@]1(C)CO1 [Carfilzomib]
7.96

* * *

# Test system: proteasome CT-L activity in MM.1S cells
# assay: Proteasome-Glo cell-based assay, CT-L activity in MM.1S cells
# conditions: read-out: IC50 of cellular proteasome CT-L activity, treated 1 h
readout-name: pIC50
Value format note: pIC50 is -log10 of concentration (mol/L); just state the number.

Give the value of pIC50 reported for the following: CC(C)C[C@H](NC(=O)[C@H](CCc1ccccc1)NC(=O)CN1CCOCC1)C(=O)N[C@@H](Cc1ccccc1)C(=O)N[C@@H](CC(C)C)C(=O)[C@@]1(C)CO1 [Carfilzomib]
7.86

* * *

# Tested on: MM patient-derived CD138+ cells
# assay: Viability of MM patient-derived BM CD138+ cells
# Type: cell-based
# conditions: Homo sapiens, 24 h, primary MM cell, patient 4 (relapsed)
readout-name: pIC50
Scale note: pIC50 = -log10(concentration in M).

Please report the measured pIC50 for CC(C)C[C@H](NC(=O)[C@H](CCc1ccccc1)NC(=O)CN1CCOCC1)C(=O)N[C@@H](Cc1ccccc1)C(=O)N[C@@H](CC(C)C)C(=O)[C@@]1(C)CO1
7.42
